molecular target: Protein Mdm4 (Homo sapiens) + E3 ubiquitin-protein ligase Mdm2 (Homo sapiens) (UniProt O15151+Q00987); assay: inhibitors of human Mdm2-MdmX association, primary screen, cell-based, luminescence, split luciferase, SaOS-2, uHTS (AID 485346); conditions: SaOS-2 split-luciferase Mdm2/MdmX complementation, at 8 µM, stronger effect = higher value
Sequence (O15151 whole entry, looked up): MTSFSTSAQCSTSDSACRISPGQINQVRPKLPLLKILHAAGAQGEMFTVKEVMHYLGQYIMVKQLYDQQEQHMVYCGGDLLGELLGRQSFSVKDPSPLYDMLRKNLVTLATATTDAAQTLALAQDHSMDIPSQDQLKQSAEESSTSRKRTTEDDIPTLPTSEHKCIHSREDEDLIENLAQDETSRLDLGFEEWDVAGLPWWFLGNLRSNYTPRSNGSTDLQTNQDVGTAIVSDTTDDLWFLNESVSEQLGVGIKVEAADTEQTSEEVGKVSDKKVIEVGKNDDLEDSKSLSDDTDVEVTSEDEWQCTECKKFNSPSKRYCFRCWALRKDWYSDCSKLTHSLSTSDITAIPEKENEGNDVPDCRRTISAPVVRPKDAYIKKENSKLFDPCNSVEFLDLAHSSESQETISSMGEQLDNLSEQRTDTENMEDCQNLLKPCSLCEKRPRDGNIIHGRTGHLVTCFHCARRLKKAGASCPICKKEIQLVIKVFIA
Sequence (Q00987 whole entry, looked up): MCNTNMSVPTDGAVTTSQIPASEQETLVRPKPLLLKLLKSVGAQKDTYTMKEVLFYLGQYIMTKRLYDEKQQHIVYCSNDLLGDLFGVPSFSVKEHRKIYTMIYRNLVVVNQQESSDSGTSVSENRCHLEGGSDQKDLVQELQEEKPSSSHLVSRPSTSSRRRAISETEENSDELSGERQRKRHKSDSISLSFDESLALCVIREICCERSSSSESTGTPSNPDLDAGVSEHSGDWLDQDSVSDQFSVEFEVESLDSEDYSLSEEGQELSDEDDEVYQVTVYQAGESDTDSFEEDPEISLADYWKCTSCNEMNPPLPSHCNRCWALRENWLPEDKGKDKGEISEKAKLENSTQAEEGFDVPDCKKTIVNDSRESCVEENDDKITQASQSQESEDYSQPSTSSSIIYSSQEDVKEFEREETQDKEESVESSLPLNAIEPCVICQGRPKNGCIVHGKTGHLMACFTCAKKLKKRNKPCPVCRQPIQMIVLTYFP
About 10,000 (3%) of roughly 330,000 compounds were called active. The entries come from a sample that favours actives as a whole.
metric.name: inhibition

As a guide, the following entries are already answered.
[[record]]
molecule = "CCC1CO/C(=C(\\C(=C(Cl)Cl)N2CCOCC2)[N+](=O)[O-])N1 (centres undefined)"
experimental_value = "4.94% (inactive)"

[[record]]
molecule = "CC[C@]1(O)CC2CN(CCc3c([nH]c4ccccc34)[C@@](C(=O)OC)(c3cc4c(cc3OC)N(C=O)[C@H]3[C@@](O)(C(=O)OC)[C@H](OC(C)=O)[C@]5(CC)C=CCN6CC[C@]43[C@@H]65)C2)C1 (some centres undefined)"
experimental_value = "67.5% (active)"

[[record]]
molecule = "COc1ccccc1NC(=O)CCCc1c[nH]c2ccccc12"
experimental_value = "-3.5% (inactive)"


stdin: Indicate its recorded inhibition; the molecule in question is C=CCNC(=O)/C=C/c1ccc(C(C)C)cc1
stdout: -111% (inactive)

The measurements presented in this section are drawn from PubChem BioAssay AID485346.
